Source listed as ChEMBL document CHEMBL4308907.

molecular target: Carbonic anhydrase 9 (Homo sapiens, UniProt Q16790); test: Binding affinity to recombinant human CA9 by DSF-based fluorescence thermal shift assay
pKd: −log10 of the molar value.
Form field: pKd (one value per entry).

molecule: COC(=O)C1CC(=O)N(c2ccc(S(N)(=O)=O)cc2)C1 (stereo not given)
value relation sign: =
pKd: 6.77

molecule: Cc1c(Br)c(N2CC(C(=O)N/N=C/c3ccccc3)CC2=O)c(Br)c(C)c1S(N)(=O)=O (stereo not given)
value relation sign: ≤
pKd: 3.70

molecule: Cc1cc(C)n(C(=O)C2CC(=O)N(c3cc(C)c(S(N)(=O)=O)c(C)c3Cl)C2)n1 (stereo not given)
value relation sign: =
pKd: 6.85

molecule: Cc1cc(N2CC(C(=O)N/N=C/c3ccc(Br)cc3)CC2=O)c(Cl)c(C)c1S(N)(=O)=O (stereo not given)
value relation sign: =
pKd: 6.70

molecule: Cc1cc(C)n(NC(=O)C2CC(=O)N(c3cc(C)c(S(N)(=O)=O)c(C)c3Cl)C2)n1 (stereo not given)
value relation sign: =
pKd: 7.00

###

Form field: Kd (one value per entry).
target: Carbonic anhydrase 12 (Homo sapiens, UniProt O43570); test: Binding affinity to recombinant human CA12 by DSF-based fluorescence thermal shift assay
Sequence (O43570 whole entry): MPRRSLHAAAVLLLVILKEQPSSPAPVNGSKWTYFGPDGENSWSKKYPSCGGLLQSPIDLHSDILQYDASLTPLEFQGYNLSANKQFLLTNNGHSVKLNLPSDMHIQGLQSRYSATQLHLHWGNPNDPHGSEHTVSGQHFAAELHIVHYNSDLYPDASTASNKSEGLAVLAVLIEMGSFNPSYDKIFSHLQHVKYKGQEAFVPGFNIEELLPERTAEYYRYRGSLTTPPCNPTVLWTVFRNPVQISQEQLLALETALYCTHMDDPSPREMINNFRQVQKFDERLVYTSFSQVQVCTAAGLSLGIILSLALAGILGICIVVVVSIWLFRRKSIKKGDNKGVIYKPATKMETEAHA

molecule: Cc1cc(NC(=O)C2CC(=O)N(c3ccccc3)C2)cc(C)c1S(N)(=O)=O (stereo not drawn)
Kd: ≥ 200 µM
//
molecule: Cc1cc(N2CC(c3n[nH]c(=S)o3)CC2=O)cc(C)c1S(N)(=O)=O (stereo not drawn)
Kd: ≥ 200 µM
//
molecule: Cc1cc(C)cc(N2CC(C(=O)O)CC2=O)c1 (stereo not drawn)
Kd: ≥ 200 µM

###

target: Carbonic anhydrase 2 (Homo sapiens); experiment: Binding affinity to recombinant human CA2 by DSF-based fluorescence thermal shift assay
pKd: −log10 of the molar value.
Form field: pKd (one value per entry).

molecule: Cc1cc(C)cc(NC(=O)C2CC(=O)N(c3ccccc3)C2)c1 (stereo not drawn)
pKd: ≤ 3.70
//
molecule: Cc1c(Br)c(N2CC(C(=O)O)CC2=O)c(Br)c(C)c1S(N)(=O)=O (stereo not drawn)
pKd: ≤ 3.70
//
molecule: Cc1cc(C)cc(N2CC(C(=O)O)CC2=O)c1 (stereo not drawn)
pKd: ≤ 3.70

###

Form field: Kd (one value per entry).
molecular target: Carbonic anhydrase 13 (Homo sapiens, UniProt Q8N1Q1); assay: Binding affinity to recombinant human CA13 by DSF-based fluorescence thermal shift assay
Sequence (Q8N1Q1 whole entry): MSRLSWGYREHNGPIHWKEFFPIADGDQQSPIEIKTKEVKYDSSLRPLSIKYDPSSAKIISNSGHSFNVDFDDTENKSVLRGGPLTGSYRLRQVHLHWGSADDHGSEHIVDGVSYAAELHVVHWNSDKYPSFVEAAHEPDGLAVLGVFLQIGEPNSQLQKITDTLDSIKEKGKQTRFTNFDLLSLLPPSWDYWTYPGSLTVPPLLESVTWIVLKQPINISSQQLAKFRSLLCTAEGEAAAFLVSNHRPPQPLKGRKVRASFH
measured parameter: Kd (µM)

compound: COC(=O)C1CC(=O)N(c2ccc(S(N)(=O)=O)cc2)C1 (configuration not stated)
value relation sign: =
reading: 1.1

compound: NS(=O)(=O)c1ccc(N2CC(C(=O)N/N=C/c3ccccc3)CC2=O)cc1 (configuration not stated)
value relation sign: =
reading: 0.83

compound: Cc1c(Br)c(N2CC(C(=O)O)CC2=O)c(Br)c(C)c1S(N)(=O)=O (configuration not stated)
value relation sign: ≥
reading: 200

compound: NS(=O)(=O)c1ccc(NC(=O)C2CC(=O)N(c3ccc(Br)cc3)C2)cc1 (configuration not stated)
value relation sign: =
reading: 3.1

compound: Cc1cc(N2CC(C(=O)NN3CC(C(=O)O)CC3=O)CC2=O)cc(C)c1S(N)(=O)=O (configuration not stated)
value relation sign: =
reading: 6.7

compound: Cc1cc(C)n(NC(=O)C2CC(=O)N(c3cc(C)c(S(N)(=O)=O)c(C)c3)C2)n1 (configuration not stated)
value relation sign: =
reading: 8.3

compound: Cc1cc(NC(=O)C2CC(=O)N(c3ccccc3)C2)cc(C)c1S(N)(=O)=O (configuration not stated)
value relation sign: =
reading: 3.9

compound: COc1ccc(/C=N/NC(=O)C2CC(=O)N(c3cc(C)c(S(N)(=O)=O)c(C)c3)C2)cc1 (configuration not stated)
value relation sign: =
reading: 21

compound: Cc1cc(N2CC(C(=O)NNC(=S)Nc3ccccc3)CC2=O)c(Cl)c(C)c1S(N)(=O)=O (configuration not stated)
value relation sign: =
reading: 0.014

compound: Cc1cc(N2CC(C(=O)O)CC2=O)cc(C)c1S(=O)(=O)Cl (configuration not stated)
value relation sign: ≥
reading: 200

compound: Cc1cc(N2CC(C(=O)N/N=C/c3ccc([N+](=O)[O-])cc3)CC2=O)c(Cl)c(C)c1S(N)(=O)=O (configuration not stated)
value relation sign: =
reading: 0.056

compound: Cc1cc(N2CC(c3n[nH]c(=S)n3-c3ccccc3)CC2=O)c(Cl)c(C)c1S(N)(=O)=O (configuration not stated)
value relation sign: =
reading: 0.017

compound: Cc1cc(N2CC(C(=O)NN)CC2=O)cc(C)c1S(N)(=O)=O (configuration not stated)
value relation sign: =
reading: 100

compound: COC(=O)C1CC(=O)N(c2cc(C)c(S(N)(=O)=O)cc2C)C1 (configuration not stated)
value relation sign: =
reading: 0.58

compound: COc1ccc(/C=N/NC(=O)C2CC(=O)N(c3cc(C)c(S(N)(=O)=O)c(C)c3Cl)C2)cc1 (configuration not stated)
value relation sign: =
reading: 0.05

compound: Cc1cc(N2CC(C(=O)O)CC2=O)c(Cl)c(C)c1S(N)(=O)=O (configuration not stated)
value relation sign: =
reading: 0.22

compound: Cc1cc(N2CC(C(=O)N/N=C/c3ccc(Cl)cc3)CC2=O)cc(C)c1S(N)(=O)=O (configuration not stated)
value relation sign: ≥
reading: 200
